The reported measurements were obtained from PubChem BioAssay AID256.

System: CD2F1 mice, L1210 leukemia ip, survival T/C
experimentalDetails: NCI In Vivo Anticancer Drug Screen. Data for tumor model L1210 Leukemia (intraperitoneal) in CD2F1 (CDF1) mice
conditions: endpoint: mean survival time; dose: 400.0 mg/kg/injection; schedule: Q01DX001 (ip); vehicle: saline; higher = longer survival
Inconclusive results and toxic doses are left out.
measurementName: T/C

stdin: Could you tell me which T/C is on file for COc1ccc(C(=O)C2(O)Oc3ccccc3C2=O)cc1 (stereo not given) ?
stdout: 117 % of control

stdin: Could you tell me which T/C is on file for CNC(=O)NCC1OC(n2cnc3c(=O)[nH]c(N)nc32)C(O)C1O (stereo not given) ?
stdout: 103 % of control

stdin: Could you tell me which T/C is on file for `Cc1nc2c(c(-c3ccccc3)n1)Cc1ccccc1O2` ?
stdout: 101 % of control

stdin: Could you tell me which T/C is on file for NC(=O)NC(=O)C1CCCCC1C(=O)O (stereo not given) ?
stdout: 109 % of control

stdin: Could you tell me which T/C is on file for `O=C(CBr)c1cc(-c2ccc(Cl)cc2)nc2c(Cl)cc(Cl)cc12` ?
stdout: 103 % of control

---

System: CD2F1 mice, L1210 leukemia ip, survival T/C
experimentalDetails: NCI In Vivo Anticancer Drug Screen. Data for tumor model L1210 Leukemia (intraperitoneal) in CD2F1 (CDF1) mice
conditions: endpoint: mean survival time; dose: 400.0 mg/kg/injection; schedule: Q01DX009 (ip); vehicle: saline with Tween-80; higher = longer survival
Toxic doses and inconclusive results are not listed.
What T/C was measured for each of the following?

stdin: Could you tell me which T/C is on file for `S=C1SCCN1c1ccccc1` ?
stdout: 95 % of control

stdin: Could you tell me which T/C is on file for `O=[N+]([O-])c1cc(S(=O)(=O)c2ccc(N3CCCCC3)c([N+](=O)[O-])c2)ccc1N1CCCCC1` ?
stdout: 95 % of control

stdin: Could you tell me which T/C is on file for `CCOC(=O)CCc1ccc2c(c1)OCO2` ?
stdout: 113 % of control

stdin: Could you tell me which T/C is on file for `CCCCCCCCCCCCCCCCOc1ccccc1CNc1cccc(S(=O)(=O)F)c1` ?
stdout: 87 % of control

stdin: Could you tell me which T/C is on file for `CCCCCCCC(=O)Nc1cc(C)ccc1C` ?
stdout: 98 % of control

stdin: Could you tell me which T/C is on file for `O=C(O)CNC(=O)CCNC(=O)OCc1ccccc1` ?
stdout: 93 % of control

stdin: Could you tell me which T/C is on file for `O=Cc1cc([N+](=O)[O-])ccc1OCC(=O)O` ?
stdout: 96 % of control

stdin: Could you tell me which T/C is on file for `CC(C)CN(CC(C)C)c1ccc([N+](=O)[O-])cc1[N+](=O)[O-]` ?
stdout: 94 % of control

stdin: Could you tell me which T/C is on file for `Cc1ccc([Si](OO[Si](c2ccccc2)(c2ccccc2)c2ccc(C)cc2)(c2ccccc2)c2ccccc2)cc1` ?
stdout: 95 % of control

stdin: Could you tell me which T/C is on file for CCOC(=O)C1C=CCCC1 (stereo unspecified) ?
stdout: 95 % of control

stdin: Could you tell me which T/C is on file for `CCN(C(=O)Nc1ccc(Cl)cc1)c1ccccc1` ?
stdout: 96 % of control

stdin: Could you tell me which T/C is on file for Nc1ccccc1SC(CC(=O)c1ccccc1)c1ccc2c(c1)OCO2 (stereo unspecified) ?
stdout: 100 % of control

stdin: Could you tell me which T/C is on file for `COc1ccccc1C(O)(c1ccccc1OC)c1c(OC)cccc1OC` ?
stdout: 88 % of control

stdin: Could you tell me which T/C is on file for `Clc1ccc(NC(Nc2ccc(Cl)cc2Cl)C(Cl)(Cl)Cl)c(Cl)c1` ?
stdout: 95 % of control

stdin: Could you tell me which T/C is on file for `O=C(O)/C(=C/c1ccc(O)cc1)c1ccccc1` ?
stdout: 87 % of control

stdin: Could you tell me which T/C is on file for `COc1ccc(N=c2ssc(SC)c2-c2ccccc2)cc1` ?
stdout: 103 % of control

stdin: Could you tell me which T/C is on file for `O=C(COc1ccc(Cl)c(Cl)c1)NCCc1ccccn1` ?
stdout: 95 % of control

stdin: Could you tell me which T/C is on file for `CC(=O)N(O)c1ccc2c(c1)Cc1ccccc1-2` ?
stdout: 101 % of control

stdin: Could you tell me which T/C is on file for `Cc1ccc(S(=O)(=O)N(C)c2ccc(C(=O)O)c(Cl)c2Cl)cc1` ?
stdout: 98 % of control

stdin: Could you tell me which T/C is on file for CCOC(=O)NC(O)C(Cl)(Cl)Cl (stereo unspecified) ?
stdout: 112 % of control

stdin: Could you tell me which T/C is on file for COC(=O)C1C2CC(OS(=O)(=O)c3ccc(C)cc3)C(C2)C1C(=O)OC (stereo unspecified) ?
stdout: 95 % of control

---

Tested on: CD2F1 mice, L1210 leukemia ip, survival T/C
experimentalDetails: NCI In Vivo Anticancer Drug Screen. Data for tumor model L1210 Leukemia (intraperitoneal) in CD2F1 (CDF1) mice
conditions: endpoint: mean survival time; dose: 25.0 mg/kg/injection; schedule: Q01DX009 (ip); vehicle: saline with Tween-80; higher = longer survival
Inconclusive results and toxic doses are left out.
What T/C was measured for each of the following?

stdin: Could you tell me which T/C is on file for CCCCCCCCCCCCN1CCCC(O)C1 (configuration not stated) ?
stdout: 116 % of control

stdin: Could you tell me which T/C is on file for Nc1nc(OCc2ccccc2)ncc1C(=O)NC(CO)C(=O)O (configuration not stated) ?
stdout: 102 % of control

stdin: Could you tell me which T/C is on file for `CCC(CC)N=C(N)N` ?
stdout: 100 % of control

stdin: Could you tell me which T/C is on file for `COc1ccc(NC(=O)Oc2ccc(C3CCCCC3)cc2)cc1` ?
stdout: 97 % of control

stdin: Could you tell me which T/C is on file for COC1CCC(/C=C(\C#N)C2CCC([N+](=O)[O-])CC2)CC1 (configuration not stated) ?
stdout: 86 % of control

stdin: Could you tell me which T/C is on file for CN1CCCC1CCNc1nc(Nc2ccc(Cl)c(Cl)c2)nc2ccc(Cl)cc12 (configuration not stated) ?
stdout: 97 % of control

stdin: Could you tell me which T/C is on file for `C[n+]1cccc(C(=S)[S-])c1` ?
stdout: 102 % of control

---

System: CD2F1 mice, L1210 leukemia ip, survival T/C
experimentalDetails: NCI In Vivo Anticancer Drug Screen. Data for tumor model L1210 Leukemia (intraperitoneal) in CD2F1 (CDF1) mice
conditions: endpoint: mean survival time; dose: 100.0 mg/kg/injection; schedule: Q01DX009 (ip); vehicle: saline; higher = longer survival
Toxic doses and inconclusive results are not listed.
measurementName: T/C

stdin: Could you tell me which T/C is on file for `CCN(CC)c1cc(Cl)ccc1Cl` ?
stdout: 101 % of control

stdin: Could you tell me which T/C is on file for Nc1nc(-c2ccccc2)c(CCCNc2ccc(C(=O)NC(CCC(=O)O)C(=O)O)cc2)c(=O)[nH]1 (stereo unspecified) ?
stdout: 94 % of control

stdin: Could you tell me which T/C is on file for `CC1(C)N=C(N)N=C(N)N1c1cccc(CC(=O)Nc2ccc(S(=O)(=O)F)cc2)c1` ?
stdout: 117 % of control

stdin: Could you tell me which T/C is on file for Cc1ccc(S(=O)(=O)OCC2OC(n3cnc4c(NC=O)ncnc43)C(OC=O)C2OC=O)cc1 (stereo unspecified) ?
stdout: 98 % of control

stdin: Could you tell me which T/C is on file for Cc1ccc(C(SCC(N)C(=O)O)(c2ccc(C)cc2)c2ccc(C)cc2)cc1 (stereo unspecified) ?
stdout: 175 % of control

stdin: Could you tell me which T/C is on file for `CNCCOC(=O)/C=C/c1ccccc1` ?
stdout: 98 % of control

stdin: Could you tell me which T/C is on file for `c1ccc(CCSc2ncnc3nc[nH]c23)cc1` ?
stdout: 122 % of control

stdin: Could you tell me which T/C is on file for COP(=O)(CC1CO1)OC (stereo unspecified) ?
stdout: 106 % of control

stdin: Could you tell me which T/C is on file for `CCOP(=O)(NCCOC)OCC` ?
stdout: 88 % of control

stdin: Could you tell me which T/C is on file for `CCN(CC)CCNC(=O)C(O)(c1ccccc1)c1ccccc1` ?
stdout: 103 % of control

stdin: Could you tell me which T/C is on file for `O/N=C(\CN1CCOCC1)c1ccc(Cl)cc1` ?
stdout: 96 % of control

---

Test system: CD2F1 mice, L1210 leukemia ip, survival T/C
experimentalDetails: NCI In Vivo Anticancer Drug Screen. Data for tumor model L1210 Leukemia (intraperitoneal) in CD2F1 (CDF1) mice
conditions: endpoint: mean survival time; dose: 200.0 mg/kg/injection; schedule: Q04DX003 (ip); vehicle: saline with Tween-80; higher = longer survival
Inconclusive results and toxic doses are left out.
measurementName: T/C

stdin: Observed T/C on CD2F1 mice, L1210 leukemia ip, survival T/C for `CCCCCCCCCCCc1nc(N)n[nH]1` , please.
stdout: 102 % of control

stdin: Observed T/C on CD2F1 mice, L1210 leukemia ip, survival T/C for COc1ccc(/C=C/C(CC(NO)c2ccc(OC)cc2)=N/O)cc1 (stereo not drawn) , please.
stdout: 98 % of control

stdin: Observed T/C on CD2F1 mice, L1210 leukemia ip, survival T/C for `O=S(Nc1ccccc1)Nc1ccccc1` , please.
stdout: 94 % of control

stdin: Observed T/C on CD2F1 mice, L1210 leukemia ip, survival T/C for `Cc1cccc(C)c1NC(=O)c1ccccc1O` , please.
stdout: 96 % of control

stdin: Observed T/C on CD2F1 mice, L1210 leukemia ip, survival T/C for `O=C(Nc1ccccc1)C(Cl)Cl` , please.
stdout: 103 % of control

stdin: Observed T/C on CD2F1 mice, L1210 leukemia ip, survival T/C for COC(=O)C1CCC(C(=O)O)CC1 (stereo not drawn) , please.
stdout: 97 % of control

stdin: Observed T/C on CD2F1 mice, L1210 leukemia ip, survival T/C for `O=C(Nc1ccccc1)Nc1nnnc2ccccc12` , please.
stdout: 90 % of control

stdin: Observed T/C on CD2F1 mice, L1210 leukemia ip, survival T/C for O=C(NC1CCCCC1)NC1CCC(CC2CCCCC2)CC1 (stereo not drawn) , please.
stdout: 96 % of control
